# System: MS2 coat protein
# experimental-details: apparent KD of MS2 coat protein, switch ON state; designed switch direction (-1 OFF switch, 1 ON switch): -1; higher = weaker reporter binding
# reported-conditions: FMN input: 0 or 200 uM; Eterna round: R93 (includes R88 designs)
attribute-measured: apparent KD of MS2 coat protein (nM)
Numbers only here, please. The scale is nM.

Recorded results for 2 sequences are shown here.
GAAACACAUGAGGAUCACCCAUGUCAGGAUAUGUAGAUAAAAAGAAAAUAAAAUAAAAGCAGAAGGGACAAAAG [Mat - Same state - Mayanna Mod - D104] ... 30.2
AAAAAGGGAGGAUAUACAGGAGGUAAGGAAAAAAAAAAAAAACAUGAGGAUCACCCAUGUAGAAGGCUUAAAAA [Ecls2-IV] ... 30.3

Let's switch to this sequence now.
Problem: Please report the recorded apparent KD of MS2 coat protein for AAAUAGCAAGGAUAUACAUGAGGAUCACCCAUGUGAACCAGGUAUGGAAUAGAAUAGAGUAGAAGGUGCAAAUA [Mod 3 of Ex 3 Tesla 8 - Jieux - Exclusion 3] .
Result: 30.2

###

# System: MS2 coat protein
# experimental-details: apparent KD of MS2 coat protein; higher = weaker reporter binding
# reported-conditions: Eterna round: R107; input ligand: arginine 13.2 mM
Record Y whenever apparent KD of MS2 coat protein is at 0.04 µM or higher; record N when lower.

Solved cases below.
AUACAUGAGGAUCACCCAUGUUACACUGAAGGAGCGACAUGUUUGUCAGGUAGGUCGCAGUGAAGUUUAAUAAUUCUUUGAUCUU [#06 Same State - Arginine A] ... N
UUUAACAAGAACGUCCUGAGUGACAAGCUACGAGGACCGGUACGGCCGCCACUCGUACCAAAACAUGAGGAUCACCCAUGUUAAA [theeternabot_exclusion_MS2_Trp_A_44] ... N

Problem: Evaluate UGUCAUGGAAACAUGACUGGUUCUACCGGUCGAGGACCGGUACGGCCGCCACUCGAUUGGUGGCACAUGAGGAUCACCCAUGUUA [SS Tryp A #14] : apparent KD of MS2 coat protein at minimum 0.04 µM?
Result: N

Problem: Evaluate GAGACAUGAGGAUCACCCAUGUUAGAUGAUACCAGUUAGAGAAGGAGCCCUUGGCAGCGUAAAUCUAGAGCCUAUGACGACAUGU [ss-theoA-1] : apparent KD of MS2 coat protein at minimum 0.04 µM?
Result: N

Problem: Evaluate GGCCAGGCAGCGGCCGCCACUUAGUGGGCCGAAUGUCCUUUGCUGAACAUGAGGAUCACCCAUGUAAGGACCGGGCUGUUCCGCA [theeternabot_exclusion_MS2_Trp_B_30] : apparent KD of MS2 coat protein at minimum 0.04 µM?
Result: N

Problem: Evaluate UGUGCAGGAUGCGUAAAGGGUCUUGGGCAUCGAGGACCGGUACGGCCGCCACUCGGCUGUACAUGAGGAUCACCCAUGUCAGGGU [#1 Same State - Tryptophan A Attempt #20 (HarryS)] : apparent KD of MS2 coat protein at minimum 0.04 µM?
Result: Y

Problem: Evaluate UUCUACAUGAGGAUCACCCAUGUGGGUGAUACCAGCACUUUUUGGUGCCCUUGGCAGCACAUGAGAAUACCGUACGAUCGGUGAU [Isbiti] : apparent KD of MS2 coat protein at minimum 0.04 µM?
Result: Y

###

# System: MS2 coat protein
# experimental-details: apparent KD of MS2 coat protein; designed switch direction (-1 OFF switch, 1 ON switch): -1; higher = weaker reporter binding
# reported-conditions: input ligand: none
Record met whenever apparent KD of MS2 coat protein is at 50 nM or higher; record not met when lower.

Solved cases below.
AACUUCUGAGGAUAUACAUAGAUUUACAUGAGGAUCACCCAUGUUCCUCUUUGUAUAAAUGUAGAAGGCAGAAGAA [Mat - Exclusion 5 - JL Mod - D72] (Eterna round: R97, puzzle: Exclusion 5) ... met
AAUCCUGAAGUUAGGAUAUGAAGUAUCACUGCACUUCAGAAGGGACUUGAGGAUCACCCAAGUAGCCGUGAGGG [salish99_bmod_ex4_r4_001] (Eterna round: R97, puzzle: Brourd's mod of Exclusion 4) ... not met
GUAGAGUCAGGAUAUACAAGAUCGAAAGAUCGGCGAUCCAUACAUGAGGAUCACCCAUGUAGAAGGGACUCUAC [Eli x2 4.003] (Eterna round: R97, puzzle: Exclusion 2) ... not met
GUUGGAUGAGGAUAUCGAGGUUAGUACAUGAGGAUCACCCAUGUUAUCCAGGUGUCGGUUCGAGAAGGCAUUGGAC [LRO-Ex5-14] (Eterna round: R96, puzzle: Exclusion 5) ... not met
ACAUGAGGAUCACCCAUGUUUUUUGGGUACUCUUGUUUCUGCAAGGAUAUGCAUUAUUUAUGUACGCAGAAGGUGCAUUACGUC [JR_ExcNG3_Sub062] (Eterna round: R96, puzzle: Exclusion NG 3) ... met

Problem: Evaluate UUAGUGUAAGGAUAUGCAAACCACGGAAAUAAAACGUGGAGGUAGAAGGUACAUGAGGAUCACCCAUGUUAAAC [Mod of Anonveat 25 - Jieux - Exclusion 4] (Eterna round: R97, puzzle: Exclusion 4) : apparent KD of MS2 coat protein at minimum 50 nM?
Result: not met

Problem: Evaluate AAGAAGAUCAAAGGAUAUGGAGCUGAAACGGCGCUAGAAGGUUGUCUAGUGUAACAUGAGGAUCACCCAUGUAGGGACCUCUAA [AK ExNG1-V2-2] (Eterna round: R96, puzzle: Exclusion NG 1) : apparent KD of MS2 coat protein at minimum 50 nM?
Result: met

Problem: Evaluate AUUGUUUAUGUAGGAUAUGCCUGGCGUGCCUUUGCAGAAGGACAUGAGGAUCACCCAUGUAACAUGAGGCUCACCCAUGUCGCA [salish99_ExNG1_r04_113] (Eterna round: R96, puzzle: Exclusion NG 1) : apparent KD of MS2 coat protein at minimum 50 nM?
Result: met

Problem: Evaluate UGAUUGAUUAACAGAUUAUACAUGAGGAUCACCCAUGUAGGUCCUACGUGCCCUUUAAGCAGCUCGUCUUAUUCCCA [Sensor-V1 #69] (Eterna round: R97, puzzle: Sensor, turn-off variant 1) : apparent KD of MS2 coat protein at minimum 50 nM?
Result: not met

###

apparent KD of MS2 coat protein: recorded values
# System: MS2 coat protein
# experimental-details: apparent KD of MS2 coat protein; designed switch direction (-1 OFF switch, 1 ON switch): -1; higher = weaker reporter binding
# reported-conditions: input ligand: microRNA oligo, concentration not stated
Could you write the number and then its unit?

UUAGAUUAUUGAGGAUAUGGAUCUUAUUAUUAACCAGAAGGCAAACUCAACAUGAGGAUCACCCAUGUAUAAAGGGUAUUAGUU [JR_ExcNG1_Sub099] (Eterna round: R96, puzzle: Exclusion NG 1) ... 62.8 nM
UAGCAUUGCCAAAGGUAGUGCAAAACAUGAGGAUCACCCAUGUAGGAUAUGGUAGGCAAAGCUUACCAGAAGGACAUGAUAAUU [Mat - Exclusion NG 3 - Mod of JL - D17] (Eterna round: R96, puzzle: Exclusion NG 3) ... 46.3 nM
ACAUGAGGAUCACCCAUGUCUGGCUGGUCUGCUCCGGUUGUUGAGGAUAUAGUUCGGUGUUCGCGCUAGAAGGUGAGGGCUGGA [Aenatbe mod 39] (Eterna round: R96, puzzle: Exclusion NG 3) ... 139 nM

Let's switch to this sequence now.
Problem: Please report the recorded apparent KD of MS2 coat protein for AGAGUGCUGCGAGGAUAUACAUGAGGAUCACCCAUGUUUACCUGUGAGGCAAAGCCUCACAGGUAGUAGAAGGCGCAGUACUCA [Mat - Exclusion NG 2 - Mod of JL - D43] (Eterna round: R96, puzzle: Exclusion NG 2) .
Result: 14.3 nM

###

# Test system: K4 kissing-loop RNA reporter;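 further: bound reporter read as fluorescence of individual clusters on recovered sequencing chips by microscopy, with normalized cluster intensities fitted with a binding model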
# experimental-details: apparent KD of K4 kissing-loop reporter; higher = weaker reporter binding
# reported-conditions: Eterna round: R107; input ligand: FMN 200 uM
apparent KD of K4 kissing-loop reporter: recorded values
Numbers only here, please. The scale is µM.

Recorded results for 3 sequences are shown here.
CUAUAAGUGCCGAGUGAUGUUCGGCCAAUACGAGGACCGGUACGGCCGCCACUCGGUCAGUCGGUGCCCACCGGGCAUGGCUGAC [Ortima] ... 0.186
UUUCUAUCGGGAAGGAGCGUGAAUGAUAAUGGAUAUAGUGAUGUUAUAUAUAAGAACGAAUCGCAGGUAGGUCGCCCGGAUGACU [SSArgB.R] ... 0.346
GUUACGCAUGGAAGGAGCGCACUCCGAUUGGGCGACACAGUGAUGUUGUGGUUCGUUCGAAUGCAGGUAGGUCGCCAUGUGUAAC [Ex Arginine B K4 20] ... 0.181

Problem: Please report the recorded apparent KD of K4 kissing-loop reporter for AAUGUACAAGUGAUGUUUGUACUUUCCGAAGGAGCGUCUAAUAAGACAGGUAGGUCGCGGAUACUCUAAAUAAUCAGGUCAUUGA [#06 K4 Arginine A Exclusion] .
Result: 0.0899

Problem: Please report the recorded apparent KD of K4 kissing-loop reporter for CGCAGUGAUGUUGCGAGUAGCUACAGGGAAGGAGCGUGCUAGAGCACAGGUAGGUCGCCCACUGGGUCAGUGAUGUUGGUCGGGU [Same State Arginine A GF 29] .
Result: 0.201

Problem: Please report the recorded apparent KD of K4 kissing-loop reporter for GCCAGUGAUGUUGGCAUUUCGAGCCAUGAAGGAGCGCACGGAAGUGCAGGUAGGUCGCAUGGUACUUAGGAUAUUAUCCUAAGUA [Antearxe] .
Result: 0.18

Problem: Please report the recorded apparent KD of K4 kissing-loop reporter for AGACUACUGACAGGAUAUAACAUCCUAGUCGUAUACCGAAAGGUAUACGAUUCCCUUCUAGUGAUGUUAGAAGGGUCGGUAGUCA [Omei KL FMN B Exc B v13] .
Result: 0.151

Problem: Please report the recorded apparent KD of K4 kissing-loop reporter for GCCCGGGCGAGUGAUGUUCGCCCACGUGAUACCAGUGCCAUCCAACACCCUUGGCAGCACGCGGGCAGUGAUGUUGCCCUUGUAU [Exclusion Theophylline A GF 4] .
Result: 0.115
